Provenance of the data: PubChem BioAssay (NCI)

# Test system: HS 578T breast
# Method description: NCI tumour cell line growth inhibition, 48 h
This section presents molecules with their documented TGI values.

Molecule | TGI
CC(C)N(C(=O)c1ccc(NCc2cc(O)ccc2O)cc1)C(C)C | 78.7 µM
COc1ccc(C(=O)c2cc(OC)c(OC)c(OC)c2)cc1/C=C/C(=O)c1ccc2c(c1)OCO2 | > 100 µM
C=C(CN(C)C)C(=O)c1ccc(OC)cc1 | > 87 µM
Cc1csc(-c2ccc3c(c2)COC3(CCCN(C)C)c2ccc(F)cc2)c1 (stereo not given) | 4.44 µM
O=C(Nc1cccc(-n2cc(-c3ccncc3)c(-c3ccc(O)c(Cl)c3)n2)c1)c1ccc(N2CCOCC2)c(C(F)(F)F)c1 | > 50 µM

----------
# System: TK-10 renal
# Method description: NCI tumour cell line growth inhibition, 48 h

Compound | TGI
Cc1ccc2nc(CC(=O)c3ccc4ccccc4c3)c(=O)[nH]c2c1 | > 100 µM
C[C@]12CC/C(=N\OC(=O)Nc3ccccc3)C=C1CC[C@@H]1C2CC[C@@]2(C)C1CC[C@@H]2OC(=O)Nc1ccccc1 (stereo partly specified) | > 100 µM
N=C(N)c1ccc(-c2ccc(-c3ccc(Cl)c(Cl)c3)o2)nc1 | 3.77 µM
O=c1nc(-c2ccccc2)scc1-c1ccccc1 | > 100 µM
CN(C)c1ccc(/C=C2\N=C(c3ccccc3)N(/N=C3\C(=O)Nc4ccccc43)C2=O)cc1 | > 100 µM
CCCCC/C=C\C/C=C/CCCCCCCCNC(=O)Nc1ccc([N+](=O)[O-])cc1 | > 100 µM
O=C1C(Cl)C(c2cccc(Br)c2)N1c1c(O)c(Cl)cc(Br)c1Cl (stereo unspecified) | 51.4 µM
O=C(NCc1cccs1)OC1CC2CCC1C2 (stereo unspecified) | > 100 µM
CN1CC(S(=O)(=O)c2ccccc2)CC(S(=O)(=O)c2ccccc2)C1c1ccccc1 (stereo unspecified) | 28 µM
Cc1cc(=O)[nH]c(NN2C(Cl)C(=O)C2c2c(O)ccc3ccccc23)n1 (stereo unspecified) | > 100 µM
COc1ccc(/C(Cl)=C(\CNc2ccccn2)c2ccccc2)cc1OC | > 100 µM
O=C(Oc1ccc(OC(Oc2ccccc2)c2ccccc2)cc1)c1ccccc1 (stereo unspecified) | > 31.6 µM
Cc1ccc(Nc2cc(=O)[nH]c(=O)[nH]2)cc1CS | > 100 µM
CNc1ccc(C(=O)CC(O)CCC(C)C2OC(=O)CC(O)CC(=O)CC(O)CC(O)CC(O)CC(O)CC3(O)CC(O)C(C(=O)NCCc4ccccn4)C(CC(OC4OC(C)C(O)C(N)C4O)/C=C/C=C/C=C/C=C\C=C/C=C/C=C/C2C)O3)cc1 (stereo unspecified) | 0.499 µM
O=C(Nc1ccc(N2C(=O)CSC2c2cccs2)cc1)c1ccc(N2C(=O)CSC2c2cccs2)cc1 (stereo unspecified) | > 100 µM
NS(=O)(=O)c1ccc(N=Nc2nc3[nH]cnc(=S)c3[nH]2)cc1 | 19.3 µM
CC(=O)OC1CC(C)c2c(Cl)ncnc21 (stereo unspecified) | > 100 µM
O=C1C2C3CCC(C2C(=O)N1CO)C1C2C(=O)N(CO)C(=O)C2C31 (stereo unspecified) | > 100 µM
Cc1cc(O)c(O)c(Oc2cc(C)cc(O)c2O)c1 | 36.3 µM
COC(=O)c1cn(CCCCO)nn1 | > 100 µM
O=C(c1ccncc1)N1CCN(C2=NS(=O)(=O)c3ccccc3N2c2ccccc2)CC1 | 77.1 µM
O=C(NCCCCCCNC(=O)NC1OCC(O)C(O)C1O)NC1OCC(O)C(O)C1O (stereo unspecified) | > 100 µM
CCN(CC)CCNc1ccc2ncn3c4c(OC)ccc(=O)c4c(O)c1c23 | > 100 µM
C[CH2][Sn]([Cl])([CH2]C)[CH2]C | 6.94 µM
COC(=O)C(C(=O)C(=O)Nc1ccc([N+](=O)[O-])cc1)c1nc2cc(C)c(C)cc2[nH]c1=O (stereo unspecified) | > 100 µM
COc1cccc(N2C(=O)[C@H]3[C@H]4CC(C(C)(C)C)CC[C@H]4c4c([nH]c5ccccc45)[C@H]3C2=O)c1 (stereo partly specified) | 28.8 µM
C=CCCCCn1c2ccccc2c2c(C)c3c[n+](C)ccc3c(C)c21 | 6.89 µM
CCCCCCCCCCNC(=S)OCCCC | 45 µM
COc1cc(C(=O)Nc2cc(O)c(C/C=C(\C)CCC=C(C)C)c(O)c2)cc2c1O[C@]1(C)CC[C@@H](O)C(C)(C)[C@H]1C2 | 28.9 µM
Cc1cn(CCCCOC(=O)NC(CCCNC(N)=O)C(=O)O)c(=O)[nH]c1=O (stereo unspecified) | > 100 µM
N#Cc1nc(NC(=O)c2ccccc2)sc1N | > 10 µM
CCC[CH2][Ge]([CH2]CCC)([CH2]CCC)[O]C(=O)C(OC(C)=O)c1ccccc1 (stereo unspecified) | 54.3 µM
CC(C)N(C(=O)C12C3C4C5C3C1(C#N)C5C42)C(C)C (stereo unspecified) | > 100 µM
CC(C)NCCCCCNc1cc(O)cc2cccnc12 | > 100 µM
CCc1cccc(CC)c1NC(=O)c1ccn2c1CCc1cnc(Nc3ccc(N4CCN(C)CC4)cc3OC)nc1-2 | 16.2 µM
Cc1ccc(S(=O)(=O)NC(=O)C#CCOC2CCCCO2)cc1 (stereo unspecified) | > 100 µM
CCC(C)C(NC(=O)c1c2ccccc2nc2ccccc12)C(=O)O (stereo unspecified) | > 100 µM
COC(=O)c1cc(NC(=O)CN(CCN(CC(=O)O)CC(=O)Nc2ccc(O)c(C(=O)OC)c2)CC(=O)O)ccc1O | > 100 µM
O=C(O)c1nc2cc(C(F)(F)F)ccc2[nH]c1=O | > 100 µM
N#CC1C(=O)NC2=C(CCOc3c2ccc2ccccc32)C1c1ccc(F)cc1 (stereo unspecified) | 43.2 µM
COc1cc2c(cc1OC)CN1CCc3ccccc3CC1C2 (stereo unspecified) | 64.3 µM
